target: C5 (Homo sapiens, UniProt P01031); assay: Human hemolysis assay (RBC lysis assay using complete human sera); assay type: cell-based; design: with complete human sera (Complement Technology, Tyler Tex.) and polypeptides; tissue Complement Technology, Tyler Tex; host or cells: complete human serum; settings: 7-azatryptophan variant polypeptides of R3008; inhibition of red blood cell lysis
Sequence (P01031 19-1676): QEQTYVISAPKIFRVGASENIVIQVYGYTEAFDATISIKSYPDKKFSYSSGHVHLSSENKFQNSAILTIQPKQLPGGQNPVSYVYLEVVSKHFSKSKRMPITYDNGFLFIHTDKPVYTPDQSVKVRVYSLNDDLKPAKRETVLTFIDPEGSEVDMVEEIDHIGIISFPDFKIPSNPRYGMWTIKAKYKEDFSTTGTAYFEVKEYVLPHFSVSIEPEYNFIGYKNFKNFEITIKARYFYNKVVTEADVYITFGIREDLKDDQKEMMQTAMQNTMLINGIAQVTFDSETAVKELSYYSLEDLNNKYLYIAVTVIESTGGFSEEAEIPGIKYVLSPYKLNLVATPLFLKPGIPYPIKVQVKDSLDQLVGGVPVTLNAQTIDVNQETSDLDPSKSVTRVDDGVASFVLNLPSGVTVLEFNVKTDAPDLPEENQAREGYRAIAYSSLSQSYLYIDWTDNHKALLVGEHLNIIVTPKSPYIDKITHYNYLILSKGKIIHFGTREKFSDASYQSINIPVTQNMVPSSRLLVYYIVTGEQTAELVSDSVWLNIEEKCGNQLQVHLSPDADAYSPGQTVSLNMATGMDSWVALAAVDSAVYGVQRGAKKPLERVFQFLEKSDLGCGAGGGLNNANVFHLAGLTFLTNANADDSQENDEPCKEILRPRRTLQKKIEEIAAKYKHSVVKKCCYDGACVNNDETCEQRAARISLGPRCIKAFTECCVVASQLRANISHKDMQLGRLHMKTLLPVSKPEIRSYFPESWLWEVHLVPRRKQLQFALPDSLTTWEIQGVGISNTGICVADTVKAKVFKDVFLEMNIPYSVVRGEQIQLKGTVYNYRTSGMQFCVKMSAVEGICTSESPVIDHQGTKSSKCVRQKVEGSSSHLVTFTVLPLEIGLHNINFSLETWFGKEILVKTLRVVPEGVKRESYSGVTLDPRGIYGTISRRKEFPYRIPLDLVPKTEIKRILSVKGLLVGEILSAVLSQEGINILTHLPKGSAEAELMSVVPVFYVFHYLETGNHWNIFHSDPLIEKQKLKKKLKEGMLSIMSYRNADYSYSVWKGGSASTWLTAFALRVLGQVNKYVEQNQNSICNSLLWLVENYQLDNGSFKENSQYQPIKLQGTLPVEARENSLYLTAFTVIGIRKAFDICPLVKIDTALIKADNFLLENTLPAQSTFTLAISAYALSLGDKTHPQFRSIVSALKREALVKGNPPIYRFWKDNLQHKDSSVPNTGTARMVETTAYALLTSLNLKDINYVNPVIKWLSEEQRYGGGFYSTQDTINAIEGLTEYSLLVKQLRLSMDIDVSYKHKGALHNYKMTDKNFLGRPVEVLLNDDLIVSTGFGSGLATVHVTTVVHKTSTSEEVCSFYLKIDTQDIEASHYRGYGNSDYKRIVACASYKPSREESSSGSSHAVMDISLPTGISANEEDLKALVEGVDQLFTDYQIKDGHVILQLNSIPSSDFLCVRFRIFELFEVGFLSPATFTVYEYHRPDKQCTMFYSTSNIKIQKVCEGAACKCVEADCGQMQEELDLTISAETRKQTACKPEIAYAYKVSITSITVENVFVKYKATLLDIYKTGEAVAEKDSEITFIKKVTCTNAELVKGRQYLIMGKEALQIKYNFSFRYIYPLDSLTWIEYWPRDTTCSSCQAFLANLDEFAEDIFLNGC
Starred links: 1 amine or outer side, 2 acyl side, 3 side chain; linkers in the order of their positions; H or OH if unused. Positions of bridges follow the written chain, without caps; N, C: chain ends. Non-standard residues stand in square brackets, D forms with d. Residues, ends and D or L forms follow the SMILES beside them. Ala(1H-tetrazol-5-yl) = N[C@@H](Cc1nnn[nH]1)C(=O)O; Trp(5-F) = N[C@@H](Cc1c[nH]c2ccc(F)cc12)C(=O)O; Trp(1-Me) = Cn1cc(C[C@H](N)C(=O)O)c2ccccc21; mXylylene = c1cc(C[*:1])cc(C[*:2])c1; Phg = N[C@H](C(=O)O)c1ccccc1; NMeS = CN[C@@H](CO)C(=O)O; Nva = CCC[C@H](N)C(=O)O

{"compound": "CCC[C@H](NC(=O)[C@@H]1CSCc2cccc(c2)CSC[C@H](NC(=O)[C@H](CCC)NC(C)=O)C(=O)N[C@@H](c2ccccc2)C(=O)N[C@@H]([C@@H](C)O)C(=O)N[C@@H](Cc2cn(C)c3ccccc23)C(=O)N[C@@H](CCC(=O)O)C(=O)N[C@@H](Cc2ccc(O)cc2)C(=O)N(C)[C@@H](CO)C(=O)N[C@@H](C)C(=O)N1)C(N)=O [Compound R3109] (Ac-[Nva]C[Phg]T[Trp(1-Me)]EY[NMeS]AC[Nva]-NH2; linker 2-10 via mXylylene)", "IC50": "> 100 µM"}
{"compound": "CCC[C@H](NC(=O)[C@@H]1CSCc2cccc(c2)CSC[C@H](NC(=O)[C@H](CCC)NC(C)=O)C(=O)N[C@@H](c2ccccc2)C(=O)N[C@@H]([C@@H](C)O)C(=O)N[C@H](Cc2c[nH]c3ccccc23)C(=O)N[C@@H](CCC(=O)O)C(=O)N[C@@H](Cc2ccc(O)cc2)C(=O)N(C)[C@@H](CO)C(=O)N[C@@H](Cc2c[nH]cn2)C(=O)N1)C(N)=O [Compound R3132] (Ac-[Nva]C[Phg]T[dW]EY[NMeS]HC[Nva]-NH2; linker 2-10 via mXylylene)", "IC50": "> 100 µM"}
{"compound": "CCC[C@H](NC(=O)[C@@H]1CSCc2cccc(c2)CSC[C@H](NC(=O)[C@H](CCC)NC(C)=O)C(=O)N[C@@H](c2ccccc2)C(=O)N[C@@H]([C@@H](C)O)C(=O)N[C@@H](Cc2c[nH]c3ccc(F)cc23)C(=O)N[C@@H](CCC(=O)O)C(=O)N[C@@H](Cc2ccc(O)cc2)C(=O)N(C)[C@@H](CO)C(=O)N[C@@H](C)C(=O)N1)C(N)=O [Compound R3088] (Ac-[Nva]C[Phg]T[Trp(5-F)]EY[NMeS]AC[Nva]-NH2; linker 2-10 via mXylylene)", "IC50": "> 100 µM"}
{"compound": "CCC[C@H](NC(=O)[C@@H]1CSCc2cccc(c2)CSC[C@H](NC(=O)[C@H](CCC)NC(C)=O)C(=O)N[C@@H](c2ccccc2)C(=O)N[C@@H]([C@@H](C)O)C(=O)N[C@@H](Cc2c[nH]c3ccccc23)C(=O)N[C@@H](Cc2nnn[nH]2)C(=O)N[C@@H](Cc2ccc(O)cc2)C(=O)N(C)[C@@H](CO)C(=O)N[C@@H](Cc2c[nH]cn2)C(=O)N1)C(N)=O [Compound R3131] (Ac-[Nva]C[Phg]TW[Ala(1H-tetrazol-5-yl)]Y[NMeS]HC[Nva]-NH2; linker 2-10 via mXylylene)", "IC50": "> 100 µM"}
{"compound": "CCC[C@H](NC(=O)[C@@H]1CSCc2cccc(c2)CSC[C@H](NC(=O)[C@H](CCC)NC(C)=O)C(=O)N[C@@H](c2ccccc2)C(=O)N[C@@H]([C@@H](C)O)C(=O)N[C@@H](C)C(=O)N[C@@H](CCC(=O)O)C(=O)N[C@@H](Cc2ccc(O)cc2)C(=O)N(C)[C@@H](CO)C(=O)N[C@@H](Cc2c[nH]cn2)C(=O)N1)C(N)=O [Compound R3034] (Ac-[Nva]C[Phg]TAEY[NMeS]HC[Nva]-NH2; linker 2-10 via mXylylene)", "IC50": "> 50 µM"}
{"compound": "CCC[C@H](NC(=O)[C@@H]1CSCc2cccc(c2)CSC[C@H](NC(=O)[C@H](CCC)NC(C)=O)C(=O)N[C@@H](c2ccccc2)C(=O)N[C@@H]([C@@H](C)O)C(=O)N[C@@H](Cc2ccccc2)C(=O)N[C@@H](CCC(=O)O)C(=O)N[C@@H](Cc2ccc(O)cc2)C(=O)N(C)[C@@H](CO)C(=O)N[C@@H](C)C(=O)N1)C(N)=O [Compound R3092] (Ac-[Nva]C[Phg]TFEY[NMeS]AC[Nva]-NH2; linker 2-10 via mXylylene)", "IC50": "> 50 µM"}

Data origin: patent US10208089B2
